// reported kon per item
target: T1, monkey PD1 protein (monkey); assay: SPR ProteOn XPR36; format for monkey PD1 not described
T1 construct: also called monkey PD-1 proteins
reported property: kon

binder="PD1-45D6(A/5B2) (antibody, V domains shown, scFv-phage in the screening ELISA; whole IgG in the other assays; also called 45D6-5B2; PD1 45D6 5B2) VH: QVQLVESGGGVVQPGRSLRLSCAASGFTFSFYAMHWVRQAPGKGLEWVAVISYDGNDKYYADSVKGRFTISRDNSKNTLYLQMNSLRAEDTAVYYCVPTTFEYWGQGTLVTVSS VL: DIVMTQTPLSPPVTPGEPASISCRSSQSLLDSDDGNTYLDWYLQKPGQSPQLLIYTLSHRASGVPDRFSGSGSGTDFTLEISRVEAEDVGVYYCMQRRDFPFTFGQGTKLDIK" result_value="208000 M⁻¹ s⁻¹"
binder="PD1-45D6 (antibody, V domains shown, scFv-phage in the screening ELISA; whole IgG in the other assays) VH: QVQLVESGGGVVQPGRSLRLSCAASGFTFSSYAMHWVRQVPGKGLEWVAVISYDGNDKYYADSVKGRFTISRDNSKNTLYLQMNSLRAEDTAVYYCVPTTFEYWGQGSQVTVSS VL: DIVMTQTPLSLPVTPGEAASISCRSSQSLLDSDDGKTYLDWYLQKPGQSPQLLIYTLSYRASGVPDRFSGSGSGTEFNLRISRVEAEDVGIYYCMQRVEFPFTFGQGTKLDIK" result_value="154000 M⁻¹ s⁻¹"
binder="PD1-49A2(A/2B9) (antibody, V domains shown, scFv-phage in the screening ELISA; whole IgG in the other assays; also called 49A2-2B9; 49A2 (2B9)) VH: QVQLVESGGGVVQPGRSLRLSCAASGFTFLRYAMHWVRQAPGKGLEWVAVISYDGRYKYYADSVKGRFTISRDNSKNTLYLQMNSLRAEDTAVYYCTTTTFDSWGQGTLVTVSS VL: DIVMTQTPLSLPVTPGEAASISCRSSQSLLDSEDGNTYLDWYLQKPGQSPQLLIYTLSHRASGVPDRFSGSGSGTDFTLEISRVEAEDVGVYYCMQRRDFPFTFGQGTKVDIK" result_value="185000 M⁻¹ s⁻¹"
